src = patent US10358405B2

System: tau
Assay: Tau level reduction in HeLa cells stably transfected with tau treated with myricanol derivatives
Assay type: cell-based
Conditions: HeLa cells stably transfected with tau
Method: To assess the effects of the aqueous bayberry extract on overexpressed and endogenous tau levels, HeLa cells stably transfected with tau were treated with the myricanol derivatives.
assay.readout: Results

CCCCCCCCC[C@H](O)CC(=O)CCc1ccc(O)c(OC)c1 [Compound 11, [10]-Gingerol] ... active
COc1c2cc(c(O)c1OC)CCC/C=C/CCc1ccc(O)c-2c1 [Compound 18, Myricacene A (trans)] ... active
COc1c2cc(c(O)c1OC)CCCC/C=C/Cc1ccc(O)c-2c1 [Compound 19, Myricacene B (trans)] ... active

====

test system: tau; experiment: Tau level reduction in HeLa cells stably transfected with tau treated with myricanol derivatives; assay type: cell-based; conditions: HeLa cells stably transfected with tau
assay.readout: Results

COc1c2cc(c(O)c1OC)CCCCC1CCc3ccc(O)c-2c31 (stereo not shown) ... active
O=C(/C=C/c1ccc(O)cc1)CC(=O)/C=C/c1ccc(O)cc1 ... active
COc1c2cc(c(O)c1OC)CCCC/C=C\Cc1ccc(O)c-2c1 [Compound 22, Myricacene B (cis)] ... active
